Tested on: HEK-293T
measurementProtocol: Cytotoxicity against human HEK-293T cells assessed as reduction in cell viability at 6.25 to 25 uM incubated for 24 hrs by CellTiter Glo viability assay
Assay type: toxicity, cell-based
protocolConditions: dose 6.25-25 µM
measuredMetric: Activity

smilesnotation=CCCCCCCC/C=C\CCCCCCCC(=O)NCCC measuredtarget=HEK-293T experimentalresult=Toxic
smilesnotation=CCCCC/C=C\C/C=C\C/C=C\C/C=C\CCCC(=O)Nc1ccc(O)cc1 measuredtarget=HEK-293T experimentalresult=Toxic
smilesnotation=CCCCCCCC/C=C\CCCCCCCC(=O)NCc1ccc(O)cc1 measuredtarget=HEK-293T experimentalresult=Toxic
